biological target: Glucose-dependent insulinotropic receptor (Rattus norvegicus, UniProt Q7TQN8); assay: Agonist activity at rat GPR119 expressed in CHO cells co-expressing cyclic AMP response element incubated for 2 hrs by steady-glo luciferase assay
Sequence (Q7TQN8 whole entry): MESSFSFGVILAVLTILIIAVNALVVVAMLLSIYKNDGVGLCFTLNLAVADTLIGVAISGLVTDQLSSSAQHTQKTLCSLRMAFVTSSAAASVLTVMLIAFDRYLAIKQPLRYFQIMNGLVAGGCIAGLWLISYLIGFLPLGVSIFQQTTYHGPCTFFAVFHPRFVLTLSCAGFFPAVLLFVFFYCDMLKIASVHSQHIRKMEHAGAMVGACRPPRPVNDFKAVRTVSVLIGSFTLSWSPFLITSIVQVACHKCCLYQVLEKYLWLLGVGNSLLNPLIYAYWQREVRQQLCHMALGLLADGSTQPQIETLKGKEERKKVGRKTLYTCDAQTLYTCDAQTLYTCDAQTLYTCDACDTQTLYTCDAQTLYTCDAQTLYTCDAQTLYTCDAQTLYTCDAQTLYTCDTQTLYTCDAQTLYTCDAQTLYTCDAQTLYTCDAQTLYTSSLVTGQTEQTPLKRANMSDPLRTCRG
reported.property: pEC50
Lab note: report pEC50 as minus log10 of the concentration in molar units, number only.

-- ask Item CC(C)c1noc(N2CCC(Oc3cc(N4CCc5cc(N6CCC[C@H](O)C6=O)ccc54)ncn3)CC2)n1 has what recorded pEC50?
-- reply 6.92

---

Can you tell me logD for the items I'm about to list?
test: Partition coefficient, logD between 1-octanol and pH 7.4 aqueous buffer by chromatographic analysis; format: physicochemical; conditions: 1-octanol/pH 7.4 aqueous buffer
I'd appreciate a reply containing only the number, no unit.

-- ask Request the reported logD associated with CC(C)SC(=O)N1CCC(Oc2cc(N3CCc4cc(S(C)(=O)=O)ccc43)ncn2)CC1
-- reply 3.6

-- ask Requested field: logD. Item: CC(C)c1noc(N2CCC(Oc3cc(N4CCc5cc([S+]([O-])CCO)ccc54)ncn3)CC2)n1 (racemic)
-- reply 2.7

-- ask Tell me the measured logD of CC(C)c1noc(N2CCC(Oc3cc(N4CCc5cc(N6CCCS6(=O)=O)ccc54)ncn3)CC2)n1 , please.
-- reply 3.2

-- ask Give its logD value. Item: CC(C)SC(=O)N1CCC(Oc2cc(N3CCc4ccccc43)ncn2)CC1
-- reply 5.3

-- ask Field request: logD | item: CC(C)c1noc(N2CCC(Oc3cc(N4CCc5cc(N6CCC[C@@H](O)C6=O)ccc54)ncn3)CC2)n1
-- reply 3.3

---

assay: MRT in rat at 1 mg/kg, po by LC/MS/MS analysis; format: ADME, organism-based; settings: in vivo
reported.property: MRT (h)
Write it as a number; the unit h goes unstated.

-- ask Recorded MRT of CC(C)c1noc(N2CCC(Oc3cc(N4CCc5cc(N6CCC[C@H](O)C6=O)ccc54)ncn3)CC2)n1 , please.
-- reply 3.8

---

target: hERG (KCNH2) (Homo sapiens, UniProt Q12809); assay: Inhibition of human ERG expressed in CHO cells at 10 uM incubated for 5 mins by patch-clamp assay relative to control; assay type: cell-based; conditions: CHO cells expressing human ERG
Sequence (Q12809 whole entry): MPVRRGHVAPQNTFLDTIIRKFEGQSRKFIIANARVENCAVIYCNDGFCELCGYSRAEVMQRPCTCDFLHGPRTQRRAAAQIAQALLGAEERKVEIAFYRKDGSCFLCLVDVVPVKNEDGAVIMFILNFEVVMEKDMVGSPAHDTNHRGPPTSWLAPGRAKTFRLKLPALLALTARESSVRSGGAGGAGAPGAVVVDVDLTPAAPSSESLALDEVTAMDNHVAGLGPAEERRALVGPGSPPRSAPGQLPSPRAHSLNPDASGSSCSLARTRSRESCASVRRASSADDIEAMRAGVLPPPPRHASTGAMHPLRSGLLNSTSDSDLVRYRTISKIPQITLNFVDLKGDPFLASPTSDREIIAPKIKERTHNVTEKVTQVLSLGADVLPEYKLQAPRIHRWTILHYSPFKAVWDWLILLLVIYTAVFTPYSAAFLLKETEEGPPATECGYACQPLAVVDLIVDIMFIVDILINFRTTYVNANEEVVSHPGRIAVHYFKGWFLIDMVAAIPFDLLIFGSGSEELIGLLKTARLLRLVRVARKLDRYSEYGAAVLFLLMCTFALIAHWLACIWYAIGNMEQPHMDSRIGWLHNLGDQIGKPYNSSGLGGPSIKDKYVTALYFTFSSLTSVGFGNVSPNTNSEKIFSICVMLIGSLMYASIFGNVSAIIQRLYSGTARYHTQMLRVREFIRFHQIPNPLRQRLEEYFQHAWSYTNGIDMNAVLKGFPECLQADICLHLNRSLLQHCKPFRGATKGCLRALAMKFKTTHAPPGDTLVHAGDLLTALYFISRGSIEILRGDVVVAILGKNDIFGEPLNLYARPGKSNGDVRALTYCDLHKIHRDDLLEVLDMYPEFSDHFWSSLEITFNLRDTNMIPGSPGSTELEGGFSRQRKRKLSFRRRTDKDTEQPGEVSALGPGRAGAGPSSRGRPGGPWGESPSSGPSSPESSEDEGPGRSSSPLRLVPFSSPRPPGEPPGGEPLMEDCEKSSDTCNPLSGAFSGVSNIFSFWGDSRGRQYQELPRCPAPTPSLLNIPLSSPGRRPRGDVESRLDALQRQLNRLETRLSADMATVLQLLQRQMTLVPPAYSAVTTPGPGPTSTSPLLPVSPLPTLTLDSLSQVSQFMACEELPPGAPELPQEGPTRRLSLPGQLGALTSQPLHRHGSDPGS
Answer each item with its documented inhibition at 5 min, 10 µM.
Note: unit % is implicit; provide only the numeric part.

-- ask Recorded inhibition at 5 min, 10 µM for CC(C)c1noc(N2CCC(Oc3cc(N4CCc5cc(N6CCCC(O)C6=O)ccc54)ncn3)CC2)n1 (racemic) with hERG (KCNH2) (Homo sapiens, UniProt Q12809), please?
-- reply 20

-- ask Give hERG (KCNH2) (Homo sapiens, UniProt Q12809) inhibition at 5 min, 10 µM for CC(C)c1noc(N2CCC(Oc3cc(N4CCc5cc(N6CC(O)CCC6=O)ccc54)ncn3)CC2)n1 (racemic)
-- reply 18

-- ask Quick check: inhibition at 5 min, 10 µM on hERG (KCNH2) (Homo sapiens, UniProt Q12809), item CC(C)SC(=O)N1CCC(Oc2cc(N3CCc4cc(S(C)(=O)=O)ccc43)ncn2)CC1 ?
-- reply 89

-- ask Return inhibition at 5 min, 10 µM measured with hERG (KCNH2) (Homo sapiens, UniProt Q12809) given this molecule: CC(C)c1noc(N2CCC(Oc3cc(N4CCc5cc(N6CCCS6(=O)=O)ccc54)ncn3)CC2)n1
-- reply 19
